Recorded values, source PubChem BioAssay.

# Test Name: small-molecule binders of probe aLefty1, primary screen, biochemical, small-molecule microarray, 635/667 nm fluorescence (AID 1153);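 further: score merges spot fluorescence with signal-to-noise ratio from the scanned slide images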
# Condition Parameters: higher = more signal
Metric: composite z-score
Numbers only.

Record request: composite z-score value, item CC(C)C(O)C1C=CC2C(=O)N(C)C(=O)C2N1Nc1ccccc1 (configuration not stated)
0.124

Item: COc1cc2c(cc1OC)CN(C(=O)[C@H]1[C@@H]3C(=O)O[C@@H](c4ccccc4)[C@@H](c4ccccc4)N3[C@@H](c3ccc(OCCO)cc3)[C@]13C(=O)Nc1ccc(C#CCCO)cc13)CC2
0.433

Continue with O=C1O[C@@H](c2ccccc2)[C@@H](c2ccccc2)N2[C@@H](c3ccc(O)cc3)[C@]3(C(=O)Nc4ccc(C#CCCO)cc43)[C@@H](C(=O)Nc3nc4ccccc4s3)[C@H]12
0.139

Same again, this time with CC(C)(C)N1CC=CC23O[C@@H]4C=CCOC(=O)[C@@H]4[C@H]2C(=O)N(CCCO)[C@@H]3C1=O (some centres not stated)
-0.429

Another compound to look at: C=CCC(OC(C)=O)[C@@H]1[C@@H](N(Cc2cc3ccccc3o2)C(=O)Cc2ccc(F)cc2)c2cc(OCCCO)ccc2N1C(=O)c1ccc2ccccc2n1 (some centres not stated)
-0.0984

# batch size: 2; output composite z-score per entry
1. C=CCN1C(=O)[C@]2(CC=C)N=C(c3ccc(OCCCO)cc3)O[C@@H]2c2ccccc21
2. COCCCNC(=O)[C@]1(Cc2ccccc2CN=[N+]=[N-])N=C(c2ccc(OCCCO)cc2)O[C@@H]1c1ccccc1

1. 0.544
2. -0.184

----------
# Test Target: Follistatin-related protein 3 (Homo sapiens) (UniProt O95633)
# Sequence (O95633 whole entry, looked up): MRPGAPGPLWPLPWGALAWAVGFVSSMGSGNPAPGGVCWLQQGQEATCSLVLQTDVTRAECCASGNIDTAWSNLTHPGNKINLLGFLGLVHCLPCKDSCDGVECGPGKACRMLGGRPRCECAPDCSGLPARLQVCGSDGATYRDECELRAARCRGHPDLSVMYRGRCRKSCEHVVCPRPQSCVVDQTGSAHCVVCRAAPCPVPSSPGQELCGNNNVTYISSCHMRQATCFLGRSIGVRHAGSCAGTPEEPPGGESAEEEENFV
# Test Name: FSTL3 binders on small-molecule microarrays, primary screen, biochemical, small-molecule microarray, 635 nm fluorescence (AID 1105);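 further: score merges emission near 667 nm and signal to noise per printed spot across three slides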
# Condition Parameters: FSTL3 binding, higher = more signal
Metric: composite z-score

Before answering, review these 3 worked examples.
Observed composite z-score on Follistatin-related protein 3 (Homo sapiens) (UniProt O95633) for C=C(/C(=C/C[C@@H](OC(=O)c1ccncc1)c1ccccc1OCCO)c1cc(C(=O)OC)ccc1OC)C(C)C , please.
0.467

Also C=CCC(OC(C)=O)[C@@H]1[C@@H](N(Cc2cc3ccccc3o2)C(=O)Cc2ccc(F)cc2)c2cc(OCCCO)ccc2N1C(=O)c1ccc2ccccc2n1 (some centres undefined) , if possible.
-0.255

How about this compound: COc1c(C)cc(-c2cc3c(c(Cc4ccccc4)n2)[Si](C(C)C)(C(C)C)OC3)cc1C
0.235

Look at each compound and report its composite z-score.
1. CCCCC(CC)C(O)C1C=CC2C(=O)N(c3ccccc3)C(=O)C2N1Nc1ccc([N+](=O)[O-])cc1 (centres undefined)
2. COC(=O)[C@@]1(Cc2ccc(F)cc2)[C@H]2c3cc(C(=O)N4CCCC4)n(CCF)c3C[C@H]2CN1C(=O)c1ccccc1

1. 1.34
2. 0.418

List composite z-score for every entry below, keeping the order given.
1. CN1C(=O)[C@@]2(CCS(=O)(=O)c3ccccc3)N=C(c3ccc(OCCCO)cc3)O[C@H]2c2ccccc21
2. COc1cc(CO)cc(I)c1O[C@H]1C=C(C(=O)NCCO)C[C@@H](NCc2ccccc2F)[C@@H]1O
3. C=CCN1C(=O)[C@@]2(O[C@@H](CCO)[C@H]([Si](C)(C)c3ccc(OC)cc3)[C@H]2C)c2cc(N3C(=O)c4ccccc4Oc4ccccc43)ccc21
4. O=C(NC1CC1)[C@@H]1c2ccccc2C(=O)N(Cc2ccccc2)[C@H]1c1ccc(CO)cc1

1.05
0.638
-0.0233
-0.298

Hi there! I need composite z-score for each item below, if you can.
1. C=C(COC)/C(=C/C[C@@H](OC(=O)c1ccncc1)c1ccc(CO)o1)c1cnc2ccccc2c1
2. COCCOC(=O)N1C(=O)[C@@]2(c3cc(C#Cc4ccc(OC)cc4)ccc31)[C@H](C(=O)N1CCN(c3ncccn3)CC1)[C@H]1C(=O)O[C@H](c3ccccc3)[C@H](c3ccccc3)N1[C@@H]2c1ccccc1OCCO

1. 1.57
2. -0.181

Look at each compound and report its composite z-score.
1. COCC(=C=CC[C@H](O)c1cccc(OCCO)c1)C[C@H](O)c1ccccn1
2. COCCOC(=O)N1C(=O)[C@@]2(c3cc(C#CC4(O)CCCCCC4)ccc31)[C@H](c1ccccc1OCCO)N1[C@H](c3ccccc3)[C@H](c3ccccc3)OC(=O)[C@H]1[C@@H]2C(N)=O
3. COc1ccc([Si](C)(C)[C@H]2[C@H](CCn3cc(CCO)nn3)O[C@@]3(C(=O)N(Cc4ccc(N5C(=O)c6cccc7cccc5c67)cc4)c4ccccc43)[C@@H]2C)cc1

1: -0.0496; 2: 1.14; 3: 1.3
